Value source: ChEMBL document CHEMBL4342426

PROTOCOL_DETAILS: in vitro
PROTOCOL_CONDITIONS: human, liver microsomes
Description: Metabolic stability in human liver microsomes assessed as intrinsic clearance at 0.5 uM incubated for 30 mins by LC-MS/MS analysis
METRIC_NAME: CLint scaled at 0.5 h, 0.5 µM

input: CLint scaled at 0.5 h, 0.5 µM for COc1ccc(C(=O)N2CCCC(c3cc4ncccc4[nH]3)C2)cc1OC (stereo not given) ?
output: < 32.2 mL/min/kg

input: Consider next the compound `O=C(CCc1nc2ncc(Cl)cc2[nH]1)Nc1ccccc1` in the same way.
output: < 33.3 mL/min/kg

input: Would you mind doing `O=C(NCCc1nc2ncc(Cl)cc2[nH]1)c1ccccc1` as well?
output: < 31.7 mL/min/kg

input: Please do the same for `O=C(c1ccccc1)N1CCC(c2cc3ncccc3[nH]2)CC1` as well.
output: < 33.3 mL/min/kg

input: Moving on to the next compound: CCC(=O)N1CCCC(c2nc3ncc(Cl)cc3[nH]2)C1 (stereo not given)
output: < 28.3 mL/min/kg

input: Queued: O=C(c1ccccc1)N1CCCC(c2cn3nc(Cl)ccc3n2)C1 (stereo not given)
output: > 61.7 mL/min/kg

input: Then what about the compound `CCN(CCc1nc2ncc(Cl)cc2[nH]1)C(=O)c1ccc(F)cc1` ?
output: < 31.7 mL/min/kg

input: What would you report for CC(C)c1cc(C(=O)N2CCCC(O)(c3cc4ncccc4[nH]3)C2)on1 (stereo not given) ?
output: 31 to 38.5 mL/min/kg

input: Next entry: `O=C(c1ccccc1)N1CC=C(c2cc3ncccc3[nH]2)CC1`
output: < 33.3 mL/min/kg

input: Now consider O=C(c1ccccc1)N1CCCC(c2nc3ncccc3[nH]2)C1 (stereo not given) and answer again.
output: < 35 mL/min/kg

---

What selectivity ratio was measured for each of the following?
PROTOCOL_DETAILS: in vitro
PROTOCOL_CONDITIONS: human, MRC5 SV2 cells
Description: Selectivity index, ratio of IC50 for human MRC5 SV2 cells to IC50 for Trypanosoma cruzi Tulahuen CL2 amastigotes infected in human MRC5 SV2 cells

input: Param item = `O=C(c1ccccc1)N1C=C(c2cc3ncccc3[nH]2)CCC1` ; retrieve measured selectivity ratio.
output: 73.8

input: Input O=C(c1ccc(F)cc1)N1CCCC(c2cc3ncccc3[nH]2)C1 (centres undefined)
output: 6.38

input: Same question for O=C(c1cccc(C(F)(F)F)n1)N1CCCC(c2cc3ncccc3[nH]2)C1 (centres undefined) please.
output: 2.42 to 4.35

input: Also O=C(c1ccc(F)cc1)N1CCCC(c2cc3ncc(Cl)cc3[nH]2)C1 (centres undefined) ?
output: 1.2

---

Assignment: determine reported logD for the given compounds.
PROTOCOL_DETAILS: physchem
PROTOCOL_CONDITIONS: buffer, pH 7.4
Description: Lipophilicity, logD of compound at pH 7.4 by HPLC analysis
Just the number, please, no unit after it.

input: I would be grateful if you could share the reported logD for CC(C)(C)OC(=O)N1CCCC(c2cn3cccnc3n2)C1 (centres undefined) .
output: 2.58

input: Another compound to look at: `O=C(CCc1nc2ncccc2[nH]1)Nc1ccccc1`
output: 1.75

input: Likewise for O=C(c1ccc(C(F)(F)F)nc1)N1CCCC(c2cc3ncccc3[nH]2)C1 (centres undefined) ?
output: 2.68

input: What would you report for O=C(c1ccccc1)N1CCCC(c2cn3ncccc3n2)C1 (centres undefined) ?
output: 2.39

input: O=C(c1cc(C(F)(F)F)no1)N1CCCC(c2cc3ncc(-c4ccccc4)cc3[nH]2)C1 (centres undefined) ?
output: 4.59

input: Now try O=C(c1ccccc1)N1CCCC(c2cc3ncccc3[nH]2)C1 (centres undefined) .
output: 2.68

input: Now the same for O=C(c1cc(C(F)(F)F)no1)N1CCOC(c2cc3ncccc3[nH]2)C1 (centres undefined)
output: 2.89

input: O=C(c1ccc(F)cc1)N1CCCC(c2cc3nc(C(F)(F)F)ccc3[nH]2)C1 (centres undefined) , same question.
output: 3.88

input: Thanks! And Nc1cc(C2CCCN(C(=O)c3ccccc3)C2)[nH]n1 (centres undefined) ?
output: 1.09

input: Would you mind doing O=C(c1cc(C(F)(F)F)n[nH]1)N1CCCC(c2cc3ncccc3[nH]2)C1 (centres undefined) as well?
output: 3.07

input: One more compound: O=C(c1ccccn1)N1CCCC(c2cc3ncccc3[nH]2)C1 (centres undefined)
output: 1.85

input: Moving on to `O=C(Nc1cccc(-c2cc3ncccc3[nH]2)c1)c1ccccc1`
output: 3.88

input: Ok, now CC(C)(O)c1cc(C(=O)N2CCCC(c3cc4ncccc4[nH]3)C2)on1 (centres undefined)
output: 2.3

---

Please respond with reported logD for every item in the list.
PROTOCOL_DETAILS: physchem
PROTOCOL_CONDITIONS: buffer, pH 7.4
Hey, just send me the number, nothing else.

input: // query logD value for entry `O=C(c1ccccc1)N1CCN(c2nc3ccccc3s2)CC1`
output: 3.4

input: Now give it for COc1cc(C(=O)N2CCCC(c3cc4ncccc4[nH]3)C2)on1 (stereo unspecified) too.
output: 2.44

input: Also `CC(C)c1cc(C(=O)N2CCC(O)(c3cc4ncccc4[nH]3)CC2)on1` , if possible.
output: 2.46

input: Now consider O=C(c1ccccc1)N1CCCC(c2cn3nc(Cl)ccc3n2)C1 (stereo unspecified) and answer again.
output: 3.18

input: One more compound: O=C(c1ccccc1)N1CCCC(c2cc3ncccn3n2)C1 (stereo unspecified)
output: 2.3

input: What do you get for O=C(c1ccc(F)cc1)N1CCCC(c2cc3ncccc3[nH]2)C1 (stereo unspecified) ?
output: 2.86

---

For each of the compounds below, state its CLint scaled at 0.5 h, 0.5 µM.
PROTOCOL_DETAILS: in vitro
PROTOCOL_CONDITIONS: human, liver microsomes

input: Entry `O=C(Nc1ccc(-c2cc3ncccc3[nH]2)cc1)c1ccccc1` : reported CLint scaled at 0.5 h, 0.5 µM = ?
output: ≥ 105 mL/min/kg

input: And then O=C(c1ccccc1)N1CCCC(c2cn3cccnc3n2)C1 (centres undefined) , what is it?
output: < 31.7 mL/min/kg

input: Would you mind doing `O=C(CCc1nc2ncc(Cl)cc2[nH]1)Nc1cccc(F)c1` as well?
output: ≥ 25 mL/min/kg

input: Same again, this time with `O=C(CCc1nc2cccnc2n1CCO)Nc1ccccc1`
output: < 35 mL/min/kg

input: # repeat for `O=C(c1ccccc1)N1C=C(c2cc3ncccc3[nH]2)CCC1`
output: ≥ 257 mL/min/kg

input: And then O=C(c1ccccn1)N1CCCC(c2cc3ncccc3[nH]2)C1 (centres undefined) , what is it?
output: < 25 mL/min/kg

input: Cool, now Cc1nc(C)c(C(=O)N2CCCC(c3cc4ncccc4[nH]3)C2)o1 (centres undefined)
output: < 31.2 mL/min/kg

input: Same question for CC(C)(C)OC(=O)N1CCCC(c2cn3cccnc3n2)C1 (centres undefined) please.
output: 49 mL/min/kg

input: Same again, this time with O=C(c1ccccc1)N1CCCC(c2cc3ncccc3[nH]2)C1 (centres undefined)
output: 38.8 mL/min/kg

---

Kindly state microsomal CLint at 0.5 h, 0.5 µM for each of the entries shown.
PROTOCOL_DETAILS: in vitro
PROTOCOL_CONDITIONS: human, liver microsomes

input: Fill in: microsomal CLint at 0.5 h, 0.5 µM of Cc1nc(C)c(C(=O)N2CCCC(c3cc4ncccc4[nH]3)C2)o1 (stereo not given) is ___
output: < 23 µL/min/mg

input: Request: CCC(=O)N1CCCC(c2nc3ncc(Cl)cc3[nH]2)C1 (stereo not given)
output: < 23 µL/min/mg

input: Try O=C(c1cccc(C(F)(F)F)n1)N1CCCC(c2cc3ncccc3[nH]2)C1 (stereo not given) next.
output: 23 to 114 µL/min/mg

input: Try this molecule too: `O=C(NCCc1nc2ncc(Cl)cc2[nH]1)c1ccccc1`
output: < 23 µL/min/mg

input: Now consider O=C(c1cc(C2CC2)no1)N1CCOC(c2cc3ncccc3[nH]2)C1 (stereo not given) and answer again.
output: < 23 µL/min/mg

input: Subsequent entry: N#Cc1ccc(C(=O)N2CCCC(c3cc4ncccc4[nH]3)C2)cc1 (stereo not given)
output: < 23 µL/min/mg

input: Same again, this time with O=C(c1ccccn1)N1CCCC(c2cc3ncccc3[nH]2)C1 (stereo not given)
output: < 23 µL/min/mg

input: Subsequent entry: O=C(c1ccccc1)N1CCCC(c2nc3ncccc3[nH]2)C1 (stereo not given)
output: < 23 µL/min/mg

input: Likewise for `CC(C)c1cc(C(=O)N2CC=C(c3cc4ncccc4[nH]3)CC2)on1` ?
output: 23 to 59.2 µL/min/mg

input: Next molecule: `O=C(CCc1nc2ncc(Cl)cc2[nH]1)Nc1cccc(F)c1`
output: < 23 µL/min/mg

---

PROTOCOL_DETAILS: in vitro
PROTOCOL_CONDITIONS: mouse, liver microsomes
Description: Metabolic stability in mouse liver microsomes assessed as intrinsic clearance at 0.5 uM incubated for 30 mins by LC-MS/MS analysis
METRIC_NAME: microsomal CLint at 0.5 h, 0.5 µM

input: Any idea what its microsomal CLint at 0.5 h, 0.5 µM is? The compound is `CC(C)c1cc(C(=O)N2CC=C(c3cc4ncccc4[nH]3)CC2)on1`
output: 398 to 446 µL/min/mg

input: Now the same for CC(C)c1cc(C(=O)N2CCCC(O)(c3cc4ncccc4[nH]3)C2)on1 (stereo not drawn)
output: 155 to 600 µL/min/mg

input: Quick one: N#Cc1cnc2cc(C3CCCN(C(=O)c4cc(C(F)(F)F)no4)C3)[nH]c2c1 (stereo not drawn)
output: 68.3 to 114 µL/min/mg
